# EXPERIMENTAL PROTOCOL: RP-HPLC retention on XTerra RP18, methanol/buffer; extrapolated retention factor log kw and slope S
# Assay type: physicochemical
# CONDITION NOTES: pH 7.4; slope of log k vs methanol volume fraction
Structures can show the parent of a compound that is named as a salt.
Overview of recorded S (slope) for various molecules
// return a plain number; no unit text

Some molecules with known S (slope) results, for comparison:
                                   molecule  numeric_value
0  CN[C@@H](C)[C@H](O)c1ccccc1 [Ephedrine, ephedrine hydrochloride]          -2.49
1  N=C(N)NC(=O)c1nc(Cl)c(N)nc1N [Amiloride, Amiloride hydrochloride]          -3.23
2  CNC[C@H](O)c1cccc(O)c1 [Phenilephrine, Phenilephrine hydrochloride]          -2.62

I would be grateful if you could share the reported S (slope) for Cc1nccc2c1[nH]c1ccccc12 [Harman, harmane] .
-3.70

Please give the measured S (slope) for this molecule: Clc1cccc(Cl)c1N=C1NCCN1 [Clonidine, Clonidine hydrochloride]
-1.82

Data request, read-out S (slope), for C1COC(NC(C2CC2)C2CC2)=N1 [Rilmenidine, rilmenidine hemifumarate]
-2.35

# query: S (slope) of entry CCC1(C2=NCCN2)Cc2ccccc2O1 (centres unmarked) [Efaroxan, efaroxan hydrochloride]
-3.10

Which S (slope) is listed for Cc1cc(C(C)(C)C)c(O)c(C)c1CC1=NCCN1 [Oxymetazoline, oxymetazoline hydrochloride] ?
-3.61

---

Attribute: log kw
# EXPERIMENTAL PROTOCOL: RP-HPLC retention on XTerra RP18, methanol/buffer; extrapolated retention factor log kw and slope S
# Type: physicochemical
# CONDITION NOTES: pH 4.4; intercept, extrapolated to 100 % buffer; methanol/buffer, 25 °C
Counter-ions that a name gives are not always drawn.
Write no unit; give the number alone.

Form field: reported log kw of Clc1ccc2nsnc2c1NC1=NCCN1 [Tizanidine, tizanidine hydrochloride]
0.74

Name the reported log kw value associated with the compound Brc1c(NC2=NCCN2)ccc2nccnc12 [Brimonidine, brimonidine hydrochloride]
0.99

Please look up its log kw: N=C(N)NC(=O)c1nc(Cl)c(N)nc1N [Amiloride, Amiloride hydrochloride]
1.11

Tell me the measured log kw of C[C@@H]1CCC[C@H](C)N1NC(=O)c1ccc(Cl)c(S(N)(=O)=O)c1 [Clopamide, clopamide] , please.
2.00

Look at this compound and give its reported log kw. Cc1nccc2c1[nH]c1ccccc12 [Harman, harmane]
1.72

Item under review: CN1CCN(C2=Nc3cc(Cl)ccc3Nc3ccccc32)CC1 [Clozapine, clozapine] . Reported log kw?
2.94

log kw lookup needed for CN[C@@H](C)[C@H](O)c1ccccc1 [Ephedrine, ephedrine hydrochloride] , thanks.
0.56

---

Measured log kw by item
# EXPERIMENTAL PROTOCOL: RP-HPLC retention on XTerra RP18, methanol/buffer; extrapolated retention factor log kw and slope S
# Type: physicochemical
# CONDITION NOTES: pH 4.4; intercept, extrapolated to 100 % buffer; methanol/buffer, 25 °C
Structures can show the parent of a compound that is named as a salt.
Quick one: just the number, no unit, thanks!

Consider the following illustrative entries.
>>> print(df.to_string())
                                   compound  value_type  numeric_value
0  C1COC(NC(C2CC2)C2CC2)=N1 [Rilmenidine, rilmenidine hemifumarate]      log kw           0.92
1  Cc1cc(C(C)(C)C)c(O)c(C)c1CC1=NCCN1 [Oxymetazoline, oxymetazoline hydrochloride]      log kw           2.33
2  CN1CCN2c3ccccc3Cc3ccccc3C2C1 (stereo not shown) [Mianserin, mianserin hydrochloride]      log kw           2.48

Please find the next compound below.
Recorded log kw of CNCCCC12CCC(c3ccccc31)c1ccccc12 [Maprotiline, maprotiline hydrochloride] , please.
2.90
